system: NCI/ADR-RES; assay: NCI tumour cell line growth inhibition, 48 h
Activity calls are given as the source filed them. Cut-off read from the data, not from the text of the source: active = GI50 up to about 1.1 µM and inactive = higher.
PROPERTY_NAME: GI50

Below are worked cases with known answers.
{"MOLECULAR_STRING": "COc1c(C)c2c(c(O)c1C/C=C(\\C)CCC(=O)O)C(=O)OC2", "EXPERIMENTAL_SYSTEM": "NCI/ADR-RES", "GI50": "2.97 µM (inactive)"}
{"MOLECULAR_STRING": "CCCCNC(=S)N/C=C1\\C(=O)Nc2ccccc2C1=O", "EXPERIMENTAL_SYSTEM": "NCI/ADR-RES", "GI50": "> 10 µM (inactive)"}
{"MOLECULAR_STRING": "O=C1NC(N2CCOCC2)=N/C1=C\\c1ccco1", "EXPERIMENTAL_SYSTEM": "NCI/ADR-RES", "GI50": "> 100 µM (inactive)"}
{"MOLECULAR_STRING": "COC(=O)c1ccc(CCc2cc(O)c(Br)cc2O)cc1", "EXPERIMENTAL_SYSTEM": "NCI/ADR-RES", "GI50": "14.3 µM (inactive)"}

Given item O=C(/C=C/c1ccccc1)c1cc(CN2CCOCC2)c(O)c(CN2CCOCC2)c1 , the value recorded as its GI50 is 25.5 µM (inactive)

Given item CCCC[C@@H](C)/C=C1\CN2CCC[C@H]2[C@@](C)(O)[C@@H]1O , the value recorded as its GI50 is 58.9 µM (inactive)
